- System: WT Max(13-93) synthetic (M65Nle)
- Test Description: PBM 8-mer E-score (E-score (rank enrichment, -0.5 to 0.5)); higher = stronger preferential binding
Whole data set: some 33,000 sequences, median “E-score (rank enrichment, -0.5 to 0.5)” near -0.0075, cut for the highest 2% near 0.23. This is one part of a sample in which the highest values are shown more often than they occur.
Measurement Name: PBM 8-mer E-score
Give the figure only, with no unit attached.

Record excerpt, results attached:
> print(dat)
   input.sequence  numeric.result
1        ACTTGCTA          0.0291
2        CAAGACAA           0.123
3        CATGCTGG           0.314

Ask: Using the record for AATCATCT , report its PBM 8-mer E-score.
Result: -0.0255

Ask: Using the record for AAAGACAG , report its PBM 8-mer E-score.
Result: 0.091

Ask: Using the record for CCAGGACC , report its PBM 8-mer E-score.
Result: -0.162

Ask: Using the record for AATTAAGC , report its PBM 8-mer E-score.
Result: 0.0692
